Test system: Bcap37
Assay summary: Growth inhibition of human Bcap37 cells at 10 uM after 72 hrs by MTT assay relative to control
Format: functional
Run parameters: Homo sapiens, Bcap37, 72 h; read-out: GI
Decision: inhibition of growth at 10 µM >= 30% yields TRUE, all other cases yield FALSE.

# Item smiles, Label class
measured = [
    ("COc1cc2ncnc(Nc3cccc(C(F)(F)F)c3)c2c(OC)c1OC", "FALSE"),
    ("COc1cc2ncnc(Nc3ccc(O)cc3)c2c(OC)c1OC", "FALSE"),
    ("COc1cc2ncnc(Nc3cccc(Cl)c3)c2c(OC)c1OC.Cl", "FALSE"),
]

Shifting focus to the compound that follows.
Is it the case that COc1cc2ncnc(Nc3c(F)cc(F)cc3Br)c2c(OC)c1OC has inhibition of growth at 10 µM reaching or exceeding 30%?
FALSE

* * *

Test system: PC-3
Assay summary: Growth inhibition of human PC3 cells after 72 hrs by MTT assay
Format: functional, cell-based
Run parameters: PC-3, 72 h
Readout name: pIC50
Please express pIC50 as -log10 of the molar concentration.

# Item smiles, Readout name, Measured result
data = [
    ("COc1cc2ncnc(NCCc3ccccc3F)c2c(OC)c1OC", "pIC50", 5.21),
]

Attention now shifts to the item below.
What value of measured pIC50 is listed for COc1cc2ncnc(Nc3cccc(Br)c3)c2cc1OC ?
5.08

* * *

Quick list: inhibition of growth at 10 µM per entry.
Tested on: Bcap37
Assay summary: Growth inhibition of human Bcap37 cells at 10 uM after 72 hrs by MTT assay relative to control
Type: functional
Run parameters: Homo sapiens, Bcap37, 72 h; read-out: GI
Answer in %, number only, no unit symbol.

Observe how each entry below is paired with its result.
# Item smiles, inhibition of growth at 10 µM [%]
measured = [
    ("COc1cc2ncnc(Nc3ccc(F)cc3)c2c(OC)c1OC", 10.8),
    ("COc1cc2ncnc(Nc3cc(I)ccc3C(=O)O)c2c(OC)c1OC", 20.7),
    ("COc1cc2ncnc(NCCc3ccccc3F)c2c(OC)c1OC", 90.4),
]

inhibition of growth at 10 µM for COc1cc2ncnc(Nc3ccc(C(F)(F)F)cc3)c2c(OC)c1OC ?
32.3

* * *

Tested on: Bcap37
Assay summary: Growth inhibition of human Bcap37 cells at 10 uM after 72 hrs by MTT assay relative to control
Assay type: functional
Run parameters: Homo sapiens, Bcap37, 72 h; read-out: GI
Readout name: inhibition of growth at 10 µM (%)
Give the quantity in %, number only.

# Item smiles, Experimental system, inhibition of growth at 10 µM (%)
rows = [
    ("COc1cc2ncnc(Nc3cc(C(F)(F)F)ccc3F)c2c(OC)c1OC", "Bcap37", 27.6),
    ("COc1cc2ncnc(Nc3ccc([N+](=O)[O-])cc3)c2c(OC)c1OC", "Bcap37", -16.3),
    ("COc1cc2ncnc(Nc3cccc([N+](=O)[O-])c3)c2c(OC)c1OC", "Bcap37", 50),
    ("COc1cc2ncnc(Nc3cccc(Br)c3)c2cc1OC", "Bcap37", 43.4),
    ("COc1cc2ncnc(Nc3cc(F)ccc3Br)c2c(OC)c1OC", "Bcap37", 18.9),
]

What inhibition of growth at 10 µM value was documented for this molecule, COc1cc2ncnc(Nc3ccc(Br)cc3Cl)c2c(OC)c1OC ?
18.6

Using the record for COc1cc2ncnc(Nc3cccc(C(F)(F)F)c3F)c2c(OC)c1OC , report its inhibition of growth at 10 µM.
69.3

Sourced from ChEMBL document CHEMBL2407062
